// data source = the domain aggregation screens of Martell et al. (2025)

Entries and their soluble fraction (log2)
Assay: soluble fraction after stress (log2 fold change); higher = more stays soluble; pooled small domains, quantitative proteomics
Conditions: stress: 50 degC
Give only the figure.

Some solved cases for reference:
[in] Quick check: soluble fraction (log2) of HMETYEFNITDKEQTGMRVDKLLPELNSDWSRNQIQDWIKAGLVVANDKVVKSNYKVKLNDHIVVTEKEV ?
[out] 0.26

[in] Value lookup for soluble fraction (log2); key = HMQSNDAGELEAVVKGIIDANPKVVADYLAGNQKVVSFFVGQAMKATKGKANPKMVSEILGKLL
[out] 0.00348

[in] Requested field: soluble fraction (log2). Item: HMEFDTEFVLRQAMHAFMQYGYAKTSMQKLKEATHLHPGSIYAAYGNKKGLFLAATEQYQKDR
[out] -0.0761

[in] For the sequence shown here, HMSMRIDTNTLNYYVQNAQISLSVLRTKINNLDQFLSGEKQPTFNQLSEIAKKINVPTGLLLLNKS , give the reported soluble fraction (log2).
[out] -1.45

[in] Recorded soluble fraction (log2) of HMPAVTEQTKTNLRRAFWQLYEQKPIQKITVKQITDLAGYNRGTFYLYFKDVYDLLDDIENK , please.
[out] -0.704

[in] Quick one: soluble fraction (log2) of HMQIKNVDYGTFLDMLDEKNVKEVEIEDEQIVFTDNADPTGYYTTGRMEDPDLVDRLHNSGATFSAI ?
[out] -0.12

[in] Can you share its soluble fraction (log2)? I mean this sequence: HMEINEDEIYEKIMIEIEQDNKVKSTWAKALSQSDGNKDKAESLYISMRFEELKYHQSYQKEELNLKDNQQ
[out] 0.0911

[in] # query: soluble fraction (log2) of entry HMNVPATAEAYEALLADAESVGKSLWGHEAKRFAAEQALLSAGLREVIQVDPDKARELALRLRGLLDEYRG
[out] 0.13

***
[in] # input sequence: HMRAVEGKRLKRLLRTNLIAIERDQILQYPLRKRPLAIVTRAVRATNPDAVIVNDAGDDVFARALDVLLAS ; wanted: its soluble fraction (log2)
[out] -1.34

[in] What does the record list as soluble fraction (log2) for HMTARYQQVEDYIVRRIQDGSWPPGHRLPSEHELVQQFGMSRMTVNRALRDLMQKGRIVRVAGVGSFVAQD ?
[out] -1.41

[in] Any idea what soluble fraction (log2) was measured for HMRPLISQTLRIDRGEGDIAGPLGVLAKEYPHLSMGSYPFQKDGIYGAHVVIRGSDPGMVEAAMDKLKAAF ?
[out] 0.018

[in] Quick check: soluble fraction (log2) of HMGEVVSAPMPGTILSIKVSQGQTVKRGQVLLILEAMKMENEIVAPRDGVVVQISTTQGASVETGAPLVVL ?
[out] -0.0677

[in] Please look up its soluble fraction (log2): HMFPNSFSEREKEVVDLLLQAKSNKQIAFSLGITNRTVEYHLGNIFAKLGVSSRSEAILTITNYKNQ
[out] -2.01

[in] Which soluble fraction (log2) value is on record for HMSTSIADNSSITYKVRKGDSLASIAKRHGVNINDVMRWNSVITKASQIQPGDMLTLYVRDS ?
[out] 0.026

[in] Entry under review: HMNKSYTVPDVRGMTVEEAQEAEGVKDIFTVHVQGTRKTDEYQPGQIVEQDPIAGRTRKSNFVIEVYVAE . Reported soluble fraction (log2)?
[out] 0.0819

[in] Item under review: HMFNGDPTTRESILASARAEIDQYGIIGLRLSAVAEKAQVSVPLIYKYFEDRDGLLAVVLGDW . Reported soluble fraction (log2)?
[out] -1.27

[in] What does the record list as soluble fraction (log2) for HMHSILDDIEGIGPARRKALMRHYMNLDAIKSATVEELAAVPSMNEKSAKAVHNFFHQQKKD ?
[out] 0.242

[in] If you can, please state the reported soluble fraction (log2) value of HMNPHGVAIIDVRKGKASTLRSLATSVRSLGEWDQLKIPIFNLESLTSLVLWHGLDAIVKEPESLQSNLIL .
[out] -0.62
